Test system: LXRa:RXRa (NR concentration 270 nM, RXRa partner concentration 90 nM)
PROCEDURE SUMMARY: PBM binding z-score (relative to random genomic background probes); higher = stronger binding; sequences stand for … in GC…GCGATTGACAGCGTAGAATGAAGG
Criterion: PBM binding z-score meeting or surpassing 4. Met: 1. Not met: -1.

Enquiry: Identify whether the reported PBM binding z-score of the following sequence is 4 or greater: "TAGCCTAGGTCATGGGCCAGTTTACCACGCGAAC"
Return: -1

Enquiry: Identify whether the reported PBM binding z-score of the following sequence is 4 or greater: "CAAAGTAGGTCACCGGAAGGTCAAAGTCCGCATG"
Return: 1

Enquiry: Identify whether the reported PBM binding z-score of the following sequence is 4 or greater: "CGAACTAGGTCAAAGGACAGTGGAAGGCGACGTA"
Return: -1

Enquiry: Identify whether the reported PBM binding z-score of the following sequence is 4 or greater: "TGAATGAAGTTAAAGATCAGGGAACGTGGCGTCG"
Return: -1

Enquiry: Identify whether the reported PBM binding z-score of the following sequence is 4 or greater: "CCGAGTAGGTTCCGAGGGGGCATTCAGTGCGAAT"
Return: -1

Enquiry: Identify whether the reported PBM binding z-score of the following sequence is 4 or greater: "CGTCCAAGGTCAAGGTGAGTGAAAGAGACTCGAA"
Return: 1

Enquiry: Identify whether the reported PBM binding z-score of the following sequence is 4 or greater: "CCTACTGGGCCAAAGGTCATAGATTCCAATGCTC"
Return: 1

Enquiry: Identify whether the reported PBM binding z-score of the following sequence is 4 or greater: "TGGCCTAGGTCATGGGCCAGTATACCACGCGAAC"
Return: -1

Enquiry: Identify whether the reported PBM binding z-score of the following sequence is 4 or greater: "AGAATGAGGTTACCAGAGATCAGGGAAACGCTTG"
Return: 1

Enquiry: Identify whether the reported PBM binding z-score of the following sequence is 4 or greater: "CGAACTAGGTCTCCAGGACAGTGAAGAGGTTGGA"
Return: -1

Enquiry: Identify whether the reported PBM binding z-score of the following sequence is 4 or greater: "ATATGTAGGTTAGGGTCATTCACAAAGTAGGGAA"
Return: 1

Enquiry: Identify whether the reported PBM binding z-score of the following sequence is 4 or greater: "CAAACTAGGTCACCGGAAAGTCAAAGTCCGCATG"
Return: -1

Enquiry: Identify whether the reported PBM binding z-score of the following sequence is 4 or greater: "CGAACTAGGTCAAAGGAAAGTGAAAGGCGACGTA"
Return: -1

Enquiry: Identify whether the reported PBM binding z-score of the following sequence is 4 or greater: "AGAATGAGGTTAAGATTAGGGAAACAGAATACAT"
Return: -1

Enquiry: Identify whether the reported PBM binding z-score of the following sequence is 4 or greater: "ACTAGGAGGACAAAGGTCAGAGCTACGCCAGTGA"
Return: 1

Enquiry: Identify whether the reported PBM binding z-score of the following sequence is 4 or greater: "TTAACAAGGTGAAAGGTCGTTGATGCACGCCTTG"
Return: -1

Enquiry: Identify whether the reported PBM binding z-score of the following sequence is 4 or greater: "CCTAGTTGGTCAAGCTCACACACGCTATAGGTAC"
Return: -1

Enquiry: Identify whether the reported PBM binding z-score of the following sequence is 4 or greater: "ACTAGTTGGTCAGCTGGGGTCACACACAATTCGG"
Return: -1

Enquiry: Identify whether the reported PBM binding z-score of the following sequence is 4 or greater: "CCGAGTAGGTTACGAGGGGGCATTCTGTGCGAAT"
Return: 1

Enquiry: Identify whether the reported PBM binding z-score of the following sequence is 4 or greater: "CGTCAAAGTTCTAGGTAACGTAACAGAAAGCAGC"
Return: -1

Enquiry: Identify whether the reported PBM binding z-score of the following sequence is 4 or greater: "CGAACTAGGTCAAAAGACAGTGAAAGGCGACGTA"
Return: -1

Enquiry: Identify whether the reported PBM binding z-score of the following sequence is 4 or greater: "CTATGTATGTTAAGGGGGTCATTCAGTTTGAAAG"
Return: 1

Enquiry: Identify whether the reported PBM binding z-score of the following sequence is 4 or greater: "CTATGTCGGTTAAGGGGGTCATTCAGTTTGAAAG"
Return: 1

---

Tested on: RXRa DBDmut IVT, anti-RXR (DBD mutation: RXRa K156A/R161A, NR concentration 90 nM)
PROCEDURE SUMMARY: PBM binding z-score (relative to random genomic background probes); higher = stronger binding; sequences stand for … in GC…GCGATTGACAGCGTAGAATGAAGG
METRIC: PBM binding z-score
Lab note: jot the number down without any unit.

Enquiry: Look up PBM binding z-score for this sequence: "CAAACTAGGTCACAGAGGACAAAGTCCGTGCGTA"
Return: 2.36

Enquiry: Look up PBM binding z-score for this sequence: "CTATGTAGCTTAAGGGGGTCATTCAGTTTGAAAG"
Return: 2.56

Enquiry: Look up PBM binding z-score for this sequence: "TCTCGGAGGACACGAAACGTCAGAGCTCGACATC"
Return: 0.694

Enquiry: Look up PBM binding z-score for this sequence: "CTAAGTAGGTTAAGGGGGTCATTCAGTTTGAAAG"
Return: 2.69

Enquiry: Look up PBM binding z-score for this sequence: "TCGAGTAGGTTACGGGGGCAGTCAGGGATGAAGA"
Return: 1

Enquiry: Look up PBM binding z-score for this sequence: "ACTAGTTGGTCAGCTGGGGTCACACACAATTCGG"
Return: 1.28

Enquiry: Look up PBM binding z-score for this sequence: "ACTTACGGGTCAAGGAGGTTATAGCACGCGTATA"
Return: 2.07

Enquiry: Look up PBM binding z-score for this sequence: "CGAACTAGGTCACCAGGGCAGTGAAGAGGTTGGA"
Return: 1.03

Enquiry: Look up PBM binding z-score for this sequence: "CCGAGTAGGTTACAAGGGGGCATTCAGTGCGAAT"
Return: 1.47

Enquiry: Look up PBM binding z-score for this sequence: "CGAACTAAGTCATCCAGGACAGTGAATACATTGA"
Return: 0.248

Enquiry: Look up PBM binding z-score for this sequence: "CCTACTGGGCCATTCAGAGGTCATCGATCATATG"
Return: 0.733

Enquiry: Look up PBM binding z-score for this sequence: "CTATGTAGGTTAAGGGCGTCATTCAGTTTGAAAG"
Return: 0.53

Enquiry: Look up PBM binding z-score for this sequence: "ATATGTAGGTTAGGGTCATTTAGAAAGTAGGGAA"
Return: 2.29

Enquiry: Look up PBM binding z-score for this sequence: "CGATCTAGGTCACCAGGACAGTGAAGAGGTTGGA"
Return: 1.35

Enquiry: Look up PBM binding z-score for this sequence: "ATACCAAGGTTATCGTGAGGTCGTTGATACTAAC"
Return: 2.26

Enquiry: Look up PBM binding z-score for this sequence: "CTATGTAGGTAAAGGGGGTCATTCAGTTTGAAAG"
Return: 2.5

Enquiry: Look up PBM binding z-score for this sequence: "CCTACTGGGCCAAGGTCTTTGATCAGTCAAAGCA"
Return: -1

Enquiry: Look up PBM binding z-score for this sequence: "TTTAGTTGGTCAAAGGTCACACACTCGAAATGCG"
Return: 1.17

Enquiry: Look up PBM binding z-score for this sequence: "AGAATGAGGTTACCAAAGATCAGTGAAACGCTTG"
Return: 1.14

Enquiry: Look up PBM binding z-score for this sequence: "CGAACTAGGTCAAAGCACAGTGAAAGGCGACGTA"
Return: 1.58

Enquiry: Look up PBM binding z-score for this sequence: "TCTAGTAGGTCACGGAGGTCACACACGACGGGTA"
Return: 2.43

Enquiry: Look up PBM binding z-score for this sequence: "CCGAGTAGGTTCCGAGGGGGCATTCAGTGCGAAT"
Return: 1.42

Enquiry: Look up PBM binding z-score for this sequence: "ATATGTAGGTTACATGCGGGTCATTCAGGCTATG"
Return: 0.745

Enquiry: Look up PBM binding z-score for this sequence: "ATATGTAGGTTAGCTGGAGTCATTCAGACTAGGC"
Return: -0.228

Enquiry: Look up PBM binding z-score for this sequence: "CTCGAAAGGTCAGTTGAGGTGAGTATACGGATAA"
Return: 2.56

Enquiry: Look up PBM binding z-score for this sequence: "ACTAGTTGGTCACCTGAGGTCACACACAATTCGG"
Return: 1.53

Enquiry: Look up PBM binding z-score for this sequence: "ATATGTAGGTTAGGGTCATTCAGAAAGTAGGGAA"
Return: 2.68

Enquiry: Look up PBM binding z-score for this sequence: "GCTCGGAGGACAAGGTCACAGCTTTGTCCGTAGA"
Return: 1.17

Enquiry: Look up PBM binding z-score for this sequence: "CCGAGTAGCTTACGAGGGGGCATTCAGTGCGAAT"
Return: 1.5

Enquiry: Look up PBM binding z-score for this sequence: "CTCGAAAGGTCGGTTGAGGTGAGTAAACGGATAA"
Return: 0.85

Enquiry: Look up PBM binding z-score for this sequence: "TTACCAAGGTGAAAGGTCGGTGATGCACGCCTTG"
Return: -0.134

Enquiry: Look up PBM binding z-score for this sequence: "TGAATGAGGTTAAAGGTCAGGGAACGTGGCGTCG"
Return: 1.87

Enquiry: Look up PBM binding z-score for this sequence: "CAAACTAGGTCACAGAGGGCAAAGTCCGTGCGTA"
Return: 2.45

Enquiry: Look up PBM binding z-score for this sequence: "TCGAGTAGGTTACGGGGGCATTCTGGGATGAAGA"
Return: 1.74

Enquiry: Look up PBM binding z-score for this sequence: "TATACAGGATCAAAGGCCAGAGTACGAATGTCGA"
Return: -0.32

Enquiry: Look up PBM binding z-score for this sequence: "ATCGAAAGGTCGAAAGTGAGTATACCCACCCGAA"
Return: 1.22

Enquiry: Look up PBM binding z-score for this sequence: "CCTAGTTGGTCAGGAGGTCACATACCGGATATGA"
Return: 0.947

Enquiry: Look up PBM binding z-score for this sequence: "TATACAGGGTCTAAGGCCAGAGTACGAATGTCGA"
Return: 0.336

Enquiry: Look up PBM binding z-score for this sequence: "CCGAGTAGGTGACGAGGGGGCATTCAGTGCGAAT"
Return: 1.05

Enquiry: Look up PBM binding z-score for this sequence: "ATATGTAGGTTAGGGGCATTCAGAAAGTAGGGAA"
Return: 1.45

Enquiry: Look up PBM binding z-score for this sequence: "GGAACGAGCGCAAAGTTGATAGCATCTGTCGACG"
Return: -0.219

Enquiry: Look up PBM binding z-score for this sequence: "CAAACTAGGTCAAGGTCAAAGTAGGTTTGTGCCA"
Return: 3.11

Enquiry: Look up PBM binding z-score for this sequence: "CGAACTAGGTCAAAGGACAGTGACAGGCGACGTA"
Return: 1.78

Enquiry: Look up PBM binding z-score for this sequence: "CGAACTATGTCAAGGACAGTGAATCTCCGCACGC"
Return: 0.328

Enquiry: Look up PBM binding z-score for this sequence: "CGTCCGAGGTCAAAGGTCAGTGAAGAGATGACGG"
Return: 4.57

Enquiry: Look up PBM binding z-score for this sequence: "TGAATGACGTTAAAGATCAGGGAACGTGGCGTCG"
Return: -0.922

Enquiry: Look up PBM binding z-score for this sequence: "CCGATTAGGTTACGAGGGGGCATTCAGTGCGAAT"
Return: 1.96

Enquiry: Look up PBM binding z-score for this sequence: "CGTCCAAGGTCAGAGAGGTCAGTGACTGCCGAGT"
Return: 3.54

Enquiry: Look up PBM binding z-score for this sequence: "CGTCCAAGGTCAGAGAGGTCACTGAATGCCGAGT"
Return: 3.39

Enquiry: Look up PBM binding z-score for this sequence: "ACTTACGGGTCAACGACGTTATAGCACGCGTATA"
Return: 1.59

Enquiry: Look up PBM binding z-score for this sequence: "CTATGTAGGTTAAGGGGTTCATTCAGTTTGAAAG"
Return: 2.79
